Biological target: OsWOX13 (Oryza sativa, UniProt Q5QMM3 1-267)
Sequence: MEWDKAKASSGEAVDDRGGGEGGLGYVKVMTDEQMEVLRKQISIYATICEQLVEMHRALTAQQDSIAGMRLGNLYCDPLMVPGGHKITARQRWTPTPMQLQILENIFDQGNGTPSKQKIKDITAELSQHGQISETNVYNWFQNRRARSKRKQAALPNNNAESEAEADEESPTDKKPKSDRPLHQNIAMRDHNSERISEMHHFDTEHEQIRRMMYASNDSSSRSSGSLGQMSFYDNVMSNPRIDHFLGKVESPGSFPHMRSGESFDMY
Assay: protein-binding microarray (RPBM); PBS, 2% BSA, 51.3 ng/ul salmon testes DNA, 50 uM zinc acetate, 200 nM TF, 25 C, 1 h; high values mean tight binding
Settings: protein: recombinant; tags: N-terminal polyhistidine and DsRed monomer fusion (pET32a); label: CyDye5-dUTP incorporated in the synthesized complementary strand; 3' TTTTT single-stranded linker to array surface; dsDNA, one strand shown
Whole data set: some 35,000 sequences, median “fluorescence intensity (a.u.)” near 10,000, cut for the highest 2% near 52,000. The entries come from a sample that favours the highest values as a whole.
Listing of recorded binding signal by entry.

{"SEQUENCE ENTRY": "GATTAATTAATTAATCTCAATGATGGTAAATACATTCCCACGGAGTCACCTAGTGCAG", "binding signal": "63100 fluorescence intensity (a.u.)"}
{"SEQUENCE ENTRY": "ATCAATCTCAATGGTTAAATGATTGATCTATCATAATTCACGGAGTCACCTAGTGCAG", "binding signal": "22100 fluorescence intensity (a.u.)"}

Next item in the queue.
Q: Look up binding signal of AACTTAATTTGATAAGAAAATTTAGTGGAGTCACCACAAGCGGAGTCACCTAGTGCAG and report it.
A: 44100 fluorescence intensity (a.u.)

###

Target: OsWOX13 (Oryza sativa, UniProt Q5QMM3 1-267)
Sequence: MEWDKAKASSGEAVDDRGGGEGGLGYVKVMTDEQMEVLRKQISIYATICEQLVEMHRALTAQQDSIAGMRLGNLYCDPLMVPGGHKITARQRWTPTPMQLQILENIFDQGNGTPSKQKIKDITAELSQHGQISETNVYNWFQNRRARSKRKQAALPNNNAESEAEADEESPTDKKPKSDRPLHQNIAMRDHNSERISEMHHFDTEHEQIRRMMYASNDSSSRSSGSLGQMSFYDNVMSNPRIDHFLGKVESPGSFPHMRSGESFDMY
Assay: protein-binding microarray (RPBM); PBS, 2% BSA, 51.3 ng/ul salmon testes DNA, 50 uM zinc acetate, 200 nM TF, 25 C, 1 h; high values mean tight binding
Settings: protein: recombinant; tags: N-terminal polyhistidine and DsRed monomer fusion (pET32a); label: CyDye5-dUTP incorporated in the synthesized complementary strand; 3' TTTTT single-stranded linker to array surface; dsDNA, one strand shown
Over roughly 35,000 sequences, “fluorescence intensity (a.u.)” has its median near 10,000; the highest 2% begin near 52,000. Only a selection was taken, and the highest values are over-represented in it overall.
Listing of recorded binding signal by entry.

Some solved entries appear below for comparison.
{"SEQUENCE ENTRY": "ATTTGATCTGATTTGATTAATTTTGCATGCACGCGAATGGCGGAGTCACCTAGTGCAG", "binding signal": "61700 fluorescence intensity (a.u.)"}
{"SEQUENCE ENTRY": "CACATGTGATTGGGCCTCGAGCCTCAGCGTGCGTGCGCCCCGGAGTCACCTAGTGCAG", "binding signal": "20400 fluorescence intensity (a.u.)"}
{"SEQUENCE ENTRY": "GGGCCGTGATTGATTTGCTGGCGTGTGTGATTTTCAGCTGCGGAGTCACCTAGTGCAG", "binding signal": "62900 fluorescence intensity (a.u.)"}
{"SEQUENCE ENTRY": "TTGTGACTTGACTTTGCCAATCTTAGTCTATTTTCTCGAGCGGAGTCACCTAGTGCAG", "binding signal": "5270 fluorescence intensity (a.u.)"}
{"SEQUENCE ENTRY": "GCAAATTAACTTAATTAATAAGTTGAGCAGCCTGTAGGCCCGGAGTCACCTAGTGCAG", "binding signal": "58200 fluorescence intensity (a.u.)"}
{"SEQUENCE ENTRY": "GATTAGATTGATCATTGATCGATCAGTGCCATTAATTGAGCGGAGTCACCTAGTGCAG", "binding signal": "30900 fluorescence intensity (a.u.)"}

Q: Look up binding signal of ATTGATTTAATGAAAATAATTTAATATTATAAATATTACTCGGAGTCACCTAGTGCAG and report it.
A: 35700 fluorescence intensity (a.u.)

Q: Look up binding signal of ACTGTGACACATGATGAACTGTTTATTTTGCATGATCTATCGGAGTCACCTAGTGCAG and report it.
A: 5480 fluorescence intensity (a.u.)

Q: Look up binding signal of ACAATTAATTTAATTAAATTGAGGTCAGCCATGCATGCAGCGGAGTCACCTAGTGCAG and report it.
A: 64800 fluorescence intensity (a.u.)

Q: Look up binding signal of TCACGATTAATTATATCATCATTTTGTATCCTTTGATTTCCGGAGTCACCTAGTGCAG and report it.
A: 25200 fluorescence intensity (a.u.)

Q: Look up binding signal of TCAAAATTGGAAGTTTTGTTGAAATTGAAACAATGTGATGCGGAGTCACCTAGTGCAG and report it.
A: 19500 fluorescence intensity (a.u.)

Q: Look up binding signal of GTTTGATTGATTGATTTCGTGTACCATGCGGACTTCAGATCGGAGTCACCTAGTGCAG and report it.
A: 65100 fluorescence intensity (a.u.)

Q: Look up binding signal of ATGTAAATTACTTTTAGGCTTTATTGAATTACTTTTATATCGGAGTCACCTAGTGCAG and report it.
A: 7630 fluorescence intensity (a.u.)

Q: Look up binding signal of AATAACACAATTGTTGATAATTGTTGGATTACTTTGTGAGCGGAGTCACCTAGTGCAG and report it.
A: 16000 fluorescence intensity (a.u.)

Q: Look up binding signal of AAACTTGATGGAATTCTTTAAATGTTCGATTGCTGGAGAGCGGAGTCACCTAGTGCAG and report it.
A: 16700 fluorescence intensity (a.u.)

Q: Look up binding signal of TGTAATTGATAAATATAAATTTACTTTAGGCATGTTTGATCGGAGTCACCTAGTGCAG and report it.
A: 55700 fluorescence intensity (a.u.)

Q: Look up binding signal of CCAAATTCATCTTAATGTTTGATTATGATCAGCATCTTATCGGAGTCACCTAGTGCAG and report it.
A: 4610 fluorescence intensity (a.u.)

Q: Look up binding signal of CATCTGGCGATTGCATATTAATTTGCATGGCGAAGCTTCCCGGAGTCACCTAGTGCAG and report it.
A: 5830 fluorescence intensity (a.u.)

Q: Look up binding signal of ATAATAATTGATAGGTAACCATGATTATCGATAAAACCATCGGAGTCACCTAGTGCAG and report it.
A: 59000 fluorescence intensity (a.u.)

Q: Look up binding signal of TCACATTGATATTAATTAATCTAGATAAATATATATATGTCGGAGTCACCTAGTGCAG and report it.
A: 17200 fluorescence intensity (a.u.)

Q: Look up binding signal of ATTAAGATTGATTAATTGTTGCTTGGTTAATAGCCACTTACGGAGTCACCTAGTGCAG and report it.
A: 47500 fluorescence intensity (a.u.)

Q: Look up binding signal of ATATAATTGATAATAAATCAGGGCATGACATGTCACATATCGGAGTCACCTAGTGCAG and report it.
A: 56400 fluorescence intensity (a.u.)

Q: Look up binding signal of TAAGTTAAATAACTATTAATTGTGGCCTGTGCTCAGCCTTCGGAGTCACCTAGTGCAG and report it.
A: 9070 fluorescence intensity (a.u.)

Q: Look up binding signal of TTAAATAAATTACTTTTAAATTAATAAAATGTTTGAATATCGGAGTCACCTAGTGCAG and report it.
A: 5500 fluorescence intensity (a.u.)

Q: Look up binding signal of AACCCTAGATTGATTTTGCGTGTGCTGCGTGAAGACGGCACGGAGTCACCTAGTGCAG and report it.
A: 41400 fluorescence intensity (a.u.)

###

Molecular target: OsWOX13 (Oryza sativa, UniProt Q5QMM3 1-267)
Sequence: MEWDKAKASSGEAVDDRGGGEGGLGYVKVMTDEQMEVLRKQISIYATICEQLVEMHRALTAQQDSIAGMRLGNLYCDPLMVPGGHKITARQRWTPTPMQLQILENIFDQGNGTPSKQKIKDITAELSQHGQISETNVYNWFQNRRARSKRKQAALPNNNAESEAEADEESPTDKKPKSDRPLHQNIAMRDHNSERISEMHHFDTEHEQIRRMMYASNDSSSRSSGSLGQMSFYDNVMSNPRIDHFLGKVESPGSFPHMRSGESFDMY
Test: protein-binding microarray (RPBM); PBS, 2% BSA, 51.3 ng/ul salmon testes DNA, 50 uM zinc acetate, 200 nM TF, 25 C, 1 h; high values mean tight binding
Conditions: protein: recombinant; tags: N-terminal polyhistidine and DsRed monomer fusion (pET32a); label: CyDye5-dUTP incorporated in the synthesized complementary strand; 3' TTTTT single-stranded linker to array surface; dsDNA, one strand shown
Whole data set: some 35,000 sequences, median “fluorescence intensity (a.u.)” near 10,000, cut for the highest 2% near 52,000. What follows is part of a selection rich in the highest values, with near analogues and random picks from the rest.
REPORTED METRIC: binding signal

Some solved entries appear below for comparison.
{"SEQUENCE ENTRY": "AAGCTGAAATTTGTTAGAGTAATAGTTGACACCATTACCACGGAGTCACCTAGTGCAG", "binding signal": "3160 fluorescence intensity (a.u.)"}
{"SEQUENCE ENTRY": "GCTCTATCACAAAATAAACTAGAGTTATGAAGCTGGATTTCGGAGTCACCTAGTGCAG", "binding signal": "4850 fluorescence intensity (a.u.)"}

Q: Look up binding signal of AGCCTAATTAATCCGTCATTAGCAAATATTTACTGTAGCACGGAGTCACCTAGTGCAG and report it.
A: 28400 fluorescence intensity (a.u.)
